Hello, the source for this data is ChEMBL document CHEMBL3301361, in case you need it.

- test details: physchem
- recorded conditions: octan-1-ol/water, pH 7.4, LogD7.4
Here, each record is paired with measured logD data.

Here is how some compounds turned out for logD.
>  <compound>
Cc1c(Oc2ccc(Cl)cc2)c2c(NS(C)(=O)=O)cccc2n1CC(=O)O

>  <logD>
-0.98

$$$$
>  <compound>
OC[C@H]1C[C@@H](n2nnc3c(N[C@@H]4C[C@H]4c4ccc(F)c(F)c4)nc(SCCC(F)(F)F)nc32)[C@H](O)[C@@H]1O

>  <logD>
3.99

$$$$
>  <compound>
Nc1ncnc2ccccc12 [4-AMINOQUINAZOLINE]

>  <logD>
1.26

$$$$
>  <compound>
CCOc1cccc(Nc2nnc(C(=O)Nc3ccc(N4CCOCC4)nc3)o2)c1

>  <logD>
3.6

$$$$
>  <compound>
O=C(c1ccc(OCCN2CCCCC2)cc1)c1c(-c2ccc(O)cc2)sc2cc(O)ccc12 [RALOXIFENE]

>  <logD>
4.13

$$$$

Data point: CCOc1nc2cccc(C(=O)O)c2n1Cc1ccc(-c2ccccc2-c2nnn[nH]2)cc1 ; logD = 0.3

So, COc1cc2ncc(C(N)=O)c(Nc3cccc(Cl)c3)c2cc1OC ? Its logD was 3.5

Briefly, logD measured for O=C(N[C@H]1Cc2ccccc2N(C[C@@H](O)CO)C1=O)c1cc2cc(Cl)sc2[nH]1 : 3.3

// recorded logD for CS(=O)(=O)c1ccc([C@H](CC2CCCC2)C(=O)Nc2nccs2)cc1 : 3.88

For record CS(=O)(=O)c1cccc(Nc2nccc(Nc3cccc4c3OCC4)n2)c1 the listed logD is 3

Reported logD for O=C(NCC(=O)N(CCO)c1ccccc1)c1cc2cc(Cl)ccc2[nH]1 was 3.37

Per the records, this compound ( O=c1[nH]nc(Cc2ccccc2)c2ccccc12 ) has logD equal to 2.8

The compound COc1cc(Nc2ncc(C)s2)nc(N[C@@H](C)c2ncc(F)cn2)n1 showed logD equal to 2.99

What the record says about N#Cc1c(-c2ccccc2)nc(SCc2ccccc2)[nH]c1=O : logD is 1.56

Measured logD, Cc1nc(NC(=N)N)nc2ccccc12 : -0.49

Looking up Cc1cn([C@H]2CCCN(S(=O)(=O)c3ccc(C(=O)O)c(Oc4cccc(Cl)c4)c3)C2)c(=O)[nH]c1=O , I see its logD listed as -1.28

Measured logD of CCC(CC)NC(=O)c1cnn(-c2ccccc2)c1NS(=O)(=O)c1ccc(C)cc1 : 0.79

For record COc1cc(-c2c(F)ccc3c(N)c(C(=O)NC4CC4)nnc23)c(OC)nn1 the listed logD is 2.75

Given item COc1cc(N2CCN(C(C)=O)CC2)ccc1Nc1ncc(Cl)c(-c2cnc3cc(C#N)ccn23)n1 , the value recorded as its logD is 2.3

Measured logD of O=c1[nH]c([C@@H]2CCCN2)nc2c1oc1ccc(Cl)cc12 : 2.01

// O=C(Nc1ccccc1)c1ccc(OCCCN2CCCC2)cc1OCc1cccc(F)c1 : logD value = 3.67

// field: logD; key: OCCN1CC=CC[C@H](c2ccc(Cl)c(Cl)c2)C1 ; value = 2.37

So, Cc1oc(C#N)cc1-c1c2c(=O)n(C)c(=O)n(CC3CC3)c2nn1Cc1ccnc2ccc(Cl)cc12 ? Its logD was 4.26

The compound listed as C[C@@H](NC(=O)C1CCNCC1)c1ccc(Nc2ncc3cc(-c4ccncc4)ccc3n2)cc1 has a reported logD of 0.4

The value of logD measured for the compound CC(C)OC(=O)N1CCC(Oc2ncnc3c2CCN3c2ccc(S(C)(=O)=O)cc2F)CC1 turned out to be 3.4

Value of measured logD for the entry CC(O)(C(=O)Nc1ccc(S(=O)(=O)c2ccc(F)cc2)cc1)C(F)(F)F (stereo not given) : 3.12
